Target: muscarinic acetylcholine receptors
Assay: inhibition of specific binding of 3H-Oxotremorine-M (3H-Oxo) to rat cortical receptors
Settings: 3H-Oxo 1.0 nM, 25° C., 30 min
pIC50: −log10 of the molar value.

compound	pIC50
Cc1cc(/C=C2/CCCN(C)C2)on1.O=C(O)C(=O)O [Compound 1, oxalate]	5.29
Cc1cc(/C=C2/CCCNC2)on1.Cl [Compound 5, hydrochloride]	5.00
